The reported measurements were obtained from ChEMBL document CHEMBL1201862.

AC50 data for Cytochrome P450 2D6 (Homo sapiens, UniProt P10635) follow.
experimentalEndpoint: AC50

[
  {
    "smilesNotation": "O=C1NC(c2cccc([N+](=O)[O-])c2)=CCN1c1ccccc1O",
    "obsValue": "20 µM (inconclusive)"
  },
  {
    "smilesNotation": "NC(=S)Nc1ccc(Oc2ccc(NC(N)=S)cc2)cc1",
    "obsValue": "14.1 µM (inconclusive)"
  },
  {
    "smilesNotation": "C#CCCCC(=S)Nc1ccccc1",
    "obsValue": "39.8 µM (inconclusive)"
  },
  {
    "smilesNotation": "CCCc1cc2c(cc1NC(=O)c1ccccc1Cl)OCO2",
    "obsValue": "28.2 µM (inconclusive)"
  },
  {
    "smilesNotation": "COc1ccc(CC(=O)Nc2cccc(-c3nnc(-c4ccco4)o3)c2)cc1",
    "obsValue": "20 µM (inconclusive)"
  },
  {
    "smilesNotation": "CNc1nc(-c2ccoc2)nc2ccccc12",
    "obsValue": "39.8 µM (inconclusive)"
  },
  {
    "smilesNotation": "C[C@@]12CC[C@H]3[C@H](CC=C4C[C@@H](O)CC[C@@]43C)[C@@H]1CC[C@@H]2N(CCO)CCO",
    "obsValue": "3.98 µM (inconclusive)"
  },
  {
    "smilesNotation": "O=C(/C=C/c1ccco1)Nc1ccc(Oc2ccccc2)cc1",
    "obsValue": "4.47 µM (inconclusive)"
  },
  {
    "smilesNotation": "CCOC(=O)c1ccccc1N/C=C1\\CCCCC1=O",
    "obsValue": "35.5 µM (inconclusive)"
  },
  {
    "smilesNotation": "CCOc1ccc2nc(O)c(CN(CCc3ccccc3)C(=O)N3CCCC3)cc2c1",
    "obsValue": "22.4 µM (inconclusive)"
  },
  {
    "smilesNotation": "CCNc1ncc2nc(-c3ccccc3)c(=O)n(C3CC3)c2n1",
    "obsValue": "1.26 µM (inconclusive)"
  }
]

###

# testedOn: Coagulation factor XII (Homo sapiens)
# Sequence (P00748 20-372 limits assumed): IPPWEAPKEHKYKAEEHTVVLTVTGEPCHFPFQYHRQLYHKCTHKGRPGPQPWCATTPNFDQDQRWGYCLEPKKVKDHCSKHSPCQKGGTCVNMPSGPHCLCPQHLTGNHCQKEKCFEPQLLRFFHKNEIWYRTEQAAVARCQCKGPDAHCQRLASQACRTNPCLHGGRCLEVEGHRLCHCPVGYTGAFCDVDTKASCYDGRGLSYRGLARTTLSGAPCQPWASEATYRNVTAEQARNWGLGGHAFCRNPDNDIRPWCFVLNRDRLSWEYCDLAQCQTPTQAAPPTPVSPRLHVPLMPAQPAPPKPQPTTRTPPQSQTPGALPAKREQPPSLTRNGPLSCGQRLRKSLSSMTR
# Sequence (P00748 373-615 limits assumed): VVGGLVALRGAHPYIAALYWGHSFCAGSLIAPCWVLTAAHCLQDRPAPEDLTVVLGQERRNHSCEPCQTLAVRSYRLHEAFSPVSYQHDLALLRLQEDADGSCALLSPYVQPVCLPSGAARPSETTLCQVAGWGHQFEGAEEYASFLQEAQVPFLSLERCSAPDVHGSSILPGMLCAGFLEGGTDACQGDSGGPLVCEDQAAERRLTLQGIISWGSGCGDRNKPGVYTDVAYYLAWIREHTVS
# Assay type: functional
Active and inactive are the calls of the source.

[
  {
    "compound": "Cc1nc2ccccc2n1C1CCN(Cc2nnnn2CCc2ccccc2)CC1",
    "IC50": "> 50 µM (inactive)"
  },
  {
    "compound": "COC(=O)C(C)Sc1nnc(Cc2cc(O)nc(O)n2)n1-c1ccc(Cl)cc1 (centres undefined)",
    "IC50": "> 50 µM (inactive)"
  },
  {
    "compound": "O=C(CN(C(=O)c1ccccc1Cl)C1CCCCC1)Nc1ccc(Cl)c([N+](=O)[O-])c1",
    "IC50": "> 50 µM (inactive)"
  },
  {
    "compound": "COc1cccc(CNc2ccc(S(N)(=O)=O)cc2)c1OC",
    "IC50": "> 50 µM (inactive)"
  }
]

###

# testedOn: Fatty acid synthase (Homo sapiens, UniProt P49327)
# Sequence (P49327 whole entry, the tested form may be a part): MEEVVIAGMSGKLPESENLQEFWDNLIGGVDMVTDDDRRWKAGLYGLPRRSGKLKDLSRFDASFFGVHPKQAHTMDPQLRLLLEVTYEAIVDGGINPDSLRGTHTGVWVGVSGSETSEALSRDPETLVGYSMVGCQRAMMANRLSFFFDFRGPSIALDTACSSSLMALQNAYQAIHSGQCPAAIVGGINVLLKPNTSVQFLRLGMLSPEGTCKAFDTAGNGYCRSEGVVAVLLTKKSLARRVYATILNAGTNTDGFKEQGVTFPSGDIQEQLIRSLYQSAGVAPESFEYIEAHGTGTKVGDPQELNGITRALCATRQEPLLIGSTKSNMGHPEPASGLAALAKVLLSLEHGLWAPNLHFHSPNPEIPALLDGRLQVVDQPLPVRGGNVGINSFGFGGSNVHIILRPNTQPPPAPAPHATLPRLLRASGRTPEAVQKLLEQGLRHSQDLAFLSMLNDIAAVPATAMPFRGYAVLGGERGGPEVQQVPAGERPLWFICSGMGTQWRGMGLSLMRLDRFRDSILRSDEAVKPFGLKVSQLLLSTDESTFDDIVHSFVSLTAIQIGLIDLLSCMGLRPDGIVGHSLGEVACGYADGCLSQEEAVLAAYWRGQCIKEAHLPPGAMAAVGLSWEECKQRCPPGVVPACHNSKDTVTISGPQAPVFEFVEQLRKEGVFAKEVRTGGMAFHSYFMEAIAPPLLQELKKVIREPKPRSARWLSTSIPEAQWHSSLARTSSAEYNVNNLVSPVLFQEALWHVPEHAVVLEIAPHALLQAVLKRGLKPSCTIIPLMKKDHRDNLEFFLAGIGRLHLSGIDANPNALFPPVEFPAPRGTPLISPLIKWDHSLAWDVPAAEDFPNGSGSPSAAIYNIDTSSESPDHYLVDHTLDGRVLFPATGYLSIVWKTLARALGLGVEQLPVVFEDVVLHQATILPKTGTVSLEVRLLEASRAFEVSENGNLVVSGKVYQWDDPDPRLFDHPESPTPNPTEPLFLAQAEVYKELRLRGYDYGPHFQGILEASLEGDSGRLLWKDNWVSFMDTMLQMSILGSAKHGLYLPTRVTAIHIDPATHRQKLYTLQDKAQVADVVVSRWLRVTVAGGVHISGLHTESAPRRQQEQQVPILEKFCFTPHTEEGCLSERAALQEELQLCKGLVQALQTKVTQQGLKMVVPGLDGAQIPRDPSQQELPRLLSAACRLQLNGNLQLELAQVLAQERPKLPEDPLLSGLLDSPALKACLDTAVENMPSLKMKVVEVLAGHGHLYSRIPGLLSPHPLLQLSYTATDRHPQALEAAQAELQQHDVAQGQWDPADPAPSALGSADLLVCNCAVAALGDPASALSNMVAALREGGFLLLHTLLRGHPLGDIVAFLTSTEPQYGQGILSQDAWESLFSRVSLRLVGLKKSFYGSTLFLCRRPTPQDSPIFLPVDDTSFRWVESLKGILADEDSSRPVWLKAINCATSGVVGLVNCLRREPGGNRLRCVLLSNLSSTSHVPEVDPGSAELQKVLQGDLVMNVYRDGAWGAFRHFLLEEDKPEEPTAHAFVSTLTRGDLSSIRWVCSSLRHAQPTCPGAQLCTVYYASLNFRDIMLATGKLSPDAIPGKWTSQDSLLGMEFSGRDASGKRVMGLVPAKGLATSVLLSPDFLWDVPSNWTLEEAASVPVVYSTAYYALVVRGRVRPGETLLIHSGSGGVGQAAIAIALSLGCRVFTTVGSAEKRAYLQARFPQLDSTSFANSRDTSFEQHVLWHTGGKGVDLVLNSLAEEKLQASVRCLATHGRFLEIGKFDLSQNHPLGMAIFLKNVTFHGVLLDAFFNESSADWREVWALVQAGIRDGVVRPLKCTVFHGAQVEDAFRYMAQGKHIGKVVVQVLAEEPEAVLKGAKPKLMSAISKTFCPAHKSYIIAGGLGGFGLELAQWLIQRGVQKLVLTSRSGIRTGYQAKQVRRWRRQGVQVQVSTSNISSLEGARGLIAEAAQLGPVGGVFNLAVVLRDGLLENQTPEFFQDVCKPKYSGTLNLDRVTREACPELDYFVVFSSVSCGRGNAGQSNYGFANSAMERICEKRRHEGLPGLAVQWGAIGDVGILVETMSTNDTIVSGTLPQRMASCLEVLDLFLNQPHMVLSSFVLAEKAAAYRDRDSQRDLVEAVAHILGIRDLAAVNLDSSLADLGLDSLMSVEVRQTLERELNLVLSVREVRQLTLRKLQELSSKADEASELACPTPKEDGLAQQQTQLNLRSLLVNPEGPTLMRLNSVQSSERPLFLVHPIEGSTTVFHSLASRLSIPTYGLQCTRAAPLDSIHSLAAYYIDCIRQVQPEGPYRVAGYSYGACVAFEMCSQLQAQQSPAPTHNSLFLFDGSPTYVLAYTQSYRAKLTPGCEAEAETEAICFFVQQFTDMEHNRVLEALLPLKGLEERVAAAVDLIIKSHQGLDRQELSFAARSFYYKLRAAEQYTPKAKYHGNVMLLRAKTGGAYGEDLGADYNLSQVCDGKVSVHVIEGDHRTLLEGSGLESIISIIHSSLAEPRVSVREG
# measurementNotes: FAS thioesterase domain inhibitors, dose response, biochemical, kinetic fluorescence intensity (AID 624326);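 note: rate of fluorescence rise from hydrolysis of a fluorogenic O-methyl fluorescein ester substrate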
# Format: functional
Calls of active or inactive are those of the source.
experimentalEndpoint: IC50

[
  {
    "molecule": "COc1ccc2c(c1)OC[C@H]1[C@H]2N2C(=O)c3cc(OC)ccc3NC(=O)[C@@]2(C)[C@H]1c1ccccc1",
    "obsValue": "13.7 µM (active)"
  },
  {
    "molecule": "CCOC(=O)[C@]12Cc3cc(OC)ccc3[C@H]1N(C1CCCCC1)C(=O)c1ccccc12",
    "obsValue": "6.5 µM (active)"
  },
  {
    "molecule": "COc1cccc(NC(=O)c2cc([N+](=O)[O-])ccc2NC(=O)CNCC2CCCO2)c1 (centres undefined)",
    "obsValue": "13.1 µM (active)"
  },
  {
    "molecule": "CN(C)C=O.O=C(COc1cccc(Cl)c1)Nc1nc(-c2ccc(S(=O)(=O)N3CCOCC3)cc2)cs1",
    "obsValue": "5.53 µM (active)"
  },
  {
    "molecule": "CCn1cc(C(=O)NCc2ccc(C)cc2)c(=O)c2cc(S(=O)(=O)N(C)C)ccc21",
    "obsValue": "11.1 µM (active)"
  },
  {
    "molecule": "N#Cc1cc2nc(O)c(O)nc2cc1[N+](=O)[O-]",
    "obsValue": "14.8 µM (active)"
  },
  {
    "molecule": "Cc1cccc(C2Nc3ccccc3C(=O)N2NC(=O)c2ccc([N+](=O)[O-])cc2)n1 (centres undefined)",
    "obsValue": "12.8 µM (active)"
  },
  {
    "molecule": "CCn1c(SCC(=O)Nc2ncc(C(F)(F)F)cc2Cl)nnc1-c1ccccc1",
    "obsValue": "4.08 µM (active)"
  },
  {
    "molecule": "O=C(Cn1nc2ccccc2n1)N/N=C/c1cc(Cl)cc([N+](=O)[O-])c1O",
    "obsValue": "6.5 µM (active)"
  }
]
